Test: protein stability index of a GFP-peptide fusion (yeast GPS) (PSI 1-4); higher = more stable; sorted into four equal gates, so the index is relative within each strain
Settings: san1∆
# Lookup of reported protein stability index keyed by entry

# chain.sequence, protein stability index
records = [
    ("SKLSQEFLYPHLNFPNV [SNF12]", 2.82),
    ("LAQLTSKLIPEVINKEI [RPS1A]", 2.92),
    ("RDEMSKAELPQWYTLQS [MED8]", 2.87),
    ("LLSDTFEVLAPKWERVF [RRI2]", 1.75),
    ("TETALMNLKKELQGYIE [SRB5]", 3.11),
    ("GPPYTTDEHLIFNSGKM [ISW2]", 3.06),
    ("LPLLYNFNPDNGFAPIS [FAS1]", 2.47),
    ("SDSIELLKQYPKDSSST [YJR042W/NUP85]", 2.61),
    ("KILMYQYNIPPEREVLV [RRP6]", 1.77),
    ("SSNASFNNQGKLDLFKY [MED1]", 2.71),
    ("TLKPTFSFTEPAQKDSS [YOR098C/NUP1]", 2.99),
    ("SEAEQIDTSKNLENMSI [YCG1]", 3.17),
    ("IGDYILKSPVLSKLCVP [QCR7]", 1.56),
    ("KAEIPPEYAKVGDFLLQ [SIN4]", 1.7),
    ("NEPAARLGSEADAKAFL [FAS2]", 3.35),
    ("SNIPTLIEKLQGFSKDT [YDL116W/NUP84]", 3.01),
    ("KTFSRLDALTRHIKSKH [RPN4]", 1.06),
    ("DVCKTRFNHLVTRLFFI [YML031W/NDC1]", 1.52),
    ("IRARIPFYGSYTETDPA [SRP54]", 2.98),
    ("KVDGKVRTDTTYPAGFM [RPS4A]", 2.97),
    ("VRTSATFRLPKTLKLAR [RPL25]", 1.74),
    ("DLDETTQTFNGSIFTHE [YML031W/NDC1]", 2.85),
    ("QVATKYASLKLPNQIPG [YMR129W/POM152]", 1.67),
    ("IGGLIPQWKRHLEEYGY [YCS4]", 1.9),
    ("ITSLYALIRRDFTLIPR [CDC53]", 1.18),
    ("LPYAIAGSGSTFIYGYC [PRE3]", 2.26),
    ("NNDGSYGLFLKYHKEQF [SRB8]", 2.12),
    ("DHEFVLISLIMTTWRKL [YMR129W/POM152]", 1.1),
    ("TSAGIMDHEEARRKHVS [RPS22A]", 2.87),
    ("TDEHLIFNSGKMIILDK [ISW2]", 2.35),
]

----------
Assay: protein stability index of a GFP-peptide fusion (yeast GPS) (PSI 1-4); higher = more stable; sorted into four equal gates, so the index is relative within each strain
Conditions: pdr5∆

# chain.sequence, protein stability index
rows = [
    ("NEKVAVMRNTYNTRKNA [GAL11]", 3.14),
    ("QVSINSNKILVYESEME [YIL149C/MLP2]", 3),
    ("LPRELPKLLDALNKISK [SNU114]", 2.74),
    ("KYSDILLKKATKPEVAS [CDC53]", 2.23),
    ("LASFEKTTDHLFDAAFY [RPO31]", 2.79),
    ("AFNFSFNTSRNVEPTEN [YAR002W/NUP60]", 3.3),
    ("QQYVAAGDLRALDTVTN [FAS1]", 2.87),
    ("TKIAQSQTMAETYVASY [ECM29]", 2.48),
    ("NELLKCKDDVQLQKILE [MTW1]", 3.04),
    ("TIITDCAFLLTKIKDAE [YJL039C/NUP192]", 2.78),
    ("ELPLLSPERFATLGIDP [RPT1]", 2.75),
    ("NLRLKILTIIEEYKKSL [GRR1]", 1.6),
    ("IKENFFERIMILDPQVT [YJL039C/NUP192]", 1.33),
    ("TKGMITNLQRNVDRLYK [NUT2]", 3.35),
    ("EHSQVEQTCVKLLDSGC [SRP72]", 3.38),
    ("VDPLKSLEDKILRMGAF [RRI1]", 3.04),
    ("FEHGRTPAEMSRPATTT [FAS2]", 3.13),
    ("LVQLPKSAMDTFKSVSK [POP3]", 2.85),
    ("AAMVPFIKFKLIQQVPP [CDC53]", 1.92),
    ("DENDSKKNNAASELANP [YAR002W/NUP60]", 2.99),
    ("TLQLYMVHREFLKLANG [RGR1]", 1.63),
    ("YWVPDWDGVIPTPAIIK [RPO21]", 2.7),
    ("SPVQDWNLLRSLYIFFT [YML103C/NUP188]", 1.71),
    ("GNPVNDANLLGAEVLIK [COR1]", 3.02),
    ("ASIESADILCPLLESFI [IRR1]", 2.48),
    ("DHTVDEIDHVEYYVMMD [SRB8]", 2.63),
    ("EFIFGTYNMIDAAAEKR [ARP7]", 3.02),
    ("IQIFRAHLWQKIHESIV [PRP8]", 2.52),
    ("FNLLILSLNKRIYDREP [YCG1]", 2.41),
    ("VECAQHCIDYLRKNKLG [SMC4]", 1.19),
]

----------
Assay: protein stability index of a GFP-peptide fusion (yeast GPS) (PSI 1-4); higher = more stable; sorted into four equal gates, so the index is relative within each strain
Conditions: san1∆
# Lookup of reported protein stability index keyed by entry
attribute.measured: protein stability index

# chain.sequence, attribute.measured, recorded.result
data = [
    ("VQCHGSFATATCVTCHW [SIR2]", "protein stability index", 2.26),
    ("DPGRYNKVCRIEAASTT [RPB8]", "protein stability index", 2.48),
    ("IVPVISTIENVLFYIGR [COB]", "protein stability index", 2.4),
    ("KILNIIKCSQSSHLSDN [POP5]", "protein stability index", 2.28),
    ("LKLPADATTWRYSMSEQ [IRR1]", "protein stability index", 2.69),
    ("FGWLLSDNSVSVRLQVT [IRR1]", "protein stability index", 1.19),
    ("ATKAINGCIFTLNPKTG [PRP8]", "protein stability index", 2.71),
    ("QMTWRQWLNNALKRSYG [POP8]", "protein stability index", 3.56),
]

----------
Listed sequences paired with reported protein stability index
Assay: protein stability index of a GFP-peptide fusion (yeast GPS) (PSI 1-4); higher = more stable; sorted into four equal gates, so the index is relative within each strain
Details: pdr5∆
attribute.measured: protein stability index

# chain.sequence, recorded.result
records = [
    ("IKIVSDKKVLVKVQPEG [RPT6]", 2.83),
    ("LLLNYLELIGVLSINPD [MED7]", 1.78),
    ("VTLNKYCSGNIYDFHKM [YJL039C/NUP192]", 2.81),
    ("CAYTGTGDVLLIQDLLH [RPN1]", 2.88),
    ("PNFLGNCNIKDFKPPYI [SWP82]", 2.64),
    ("VELIESKINELSYYVEE [SMC4]", 3.42),
    ("FNELCDPESRTQSYNNQ [POP1]", 3.02),
    ("RLKGDIFCVGSGQTFAY [PRE2]", 1.77),
    ("FGRKNDRQCMIMDELLS [DIB1]", 2.65),
    ("MVEGDSYVETLDSMIEL [MED1]", 3.24),
    ("DIFITPTPVVTISEKEQ [SSN2]", 1.95),
    ("NKAQAKMDKRAKNSDSA [RPL8A]", 3.38),
    ("MAHFKEYQVIGRRLPTE [RPL20A]", 2.07),
    ("MTTQQEEQRSDTKNSKS [ISW2]", 3.08),
]

----------
Test: protein stability index of a GFP-peptide fusion (yeast GPS) (PSI 1-4); higher = more stable; sorted into four equal gates, so the index is relative within each strain
Details: doa10∆
Output schema: class label derived from protein stability index. Mapping: Low: < 2; Medium: ≥ 2 and < 3; High: ≥ 3

# chain.sequence, group.label
records = [
    ("CCINAAFLALVDAGIAL [RRP46]", "Medium"),
    ("RRMGILKKILDQCKKQR [RPO31]", "Low"),
    ("NETNDKKRNPSKQNGSK [PRP28]", "High"),
    ("KPYDINVVLVTNDRLNR [DIS3]", "Low"),
    ("NKGWKLQSLNESKDLLR [SRB4]", "Medium"),
    ("KIEGVATPQDAQFYLGK [RPL33A]", "Medium"),
    ("PSRTRETATSERNASEV [GRR1]", "High"),
    ("KAEIPPEYAKVGDFLLQ [SIN4]", "Low"),
    ("VEYKLTFVPTNSDKPRD [DIS3]", "Low"),
    ("WRVREASTSALLQLIQS [ECM29]", "Low"),
    ("IDDNYIVVVIEIITSLS [SRB8]", "Medium"),
    ("VVGRTTRSNPPFKRKML [REC8]", "Medium"),
    ("DVKFPSNTTTQIQFTPL [SMC3]", "Medium"),
    ("VIFLSSLLTLVGSVTYQ [YJL039C/NUP192]", "Low"),
    ("VNDVELAFKKNEMLLKR [MTW1]", "High"),
    ("DIFITPTPVVTISEKEQ [SSN2]", "Low"),
    ("DEGKEIPATIFDKVIYH [TAF14]", "High"),
    ("GGGWDNVDQTKTQCPNY [RPC11]", "High"),
    ("FSRFVDQFIRHVLRGVE [YCG1]", "High"),
    ("EFQIEDAIWSLVFQLAK [SRB8]", "High"),
    ("ESLILKWDNQSASRAKN [RGR1]", "High"),
    ("NNTKAGRRKTWKRQNTL [RPL15A]", "Medium"),
    ("DDENEPKRKRRLPVSED [YOR098C/NUP1]", "High"),
    ("ELGAINLHALSMSLQSK [SWI1]", "Medium"),
]
